Entries and their measured Kd follow.
- ASSAYED_SYSTEM: T1, human TfR ectodomain fused to a mouse IgG1 Fc fragment (human, UniProt P02786 89-760)
- T1 construct: extracellular domain; ectodomain fused to the N-terminal end of the Fc, made in-house; not shown: mouse IgG1 Fc fragment
- T1 sequence (P02786 89-760): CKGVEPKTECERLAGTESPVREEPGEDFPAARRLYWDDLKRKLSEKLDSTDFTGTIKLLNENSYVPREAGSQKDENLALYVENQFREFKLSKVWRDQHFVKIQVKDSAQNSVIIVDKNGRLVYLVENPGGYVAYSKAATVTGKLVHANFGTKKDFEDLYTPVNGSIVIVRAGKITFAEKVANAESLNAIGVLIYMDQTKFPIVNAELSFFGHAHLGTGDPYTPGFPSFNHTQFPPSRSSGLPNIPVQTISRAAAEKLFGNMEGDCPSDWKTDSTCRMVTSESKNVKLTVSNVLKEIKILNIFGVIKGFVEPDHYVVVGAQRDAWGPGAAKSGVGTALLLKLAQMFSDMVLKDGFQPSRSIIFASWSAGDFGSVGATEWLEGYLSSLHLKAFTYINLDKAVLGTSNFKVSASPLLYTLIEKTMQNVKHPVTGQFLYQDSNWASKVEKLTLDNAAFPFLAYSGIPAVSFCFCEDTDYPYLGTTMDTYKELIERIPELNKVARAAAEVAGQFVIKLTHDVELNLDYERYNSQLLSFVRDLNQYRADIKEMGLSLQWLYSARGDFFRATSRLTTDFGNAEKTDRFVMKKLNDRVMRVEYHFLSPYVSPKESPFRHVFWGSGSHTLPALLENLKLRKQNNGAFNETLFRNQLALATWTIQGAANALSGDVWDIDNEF
- MEASUREMENT_PROTOCOL: SPR, kinetic
Express your answer in nM, writing the number without its unit.

Input line: Quick one: Kd of B8^V22 (VHH) VHH: EVQLVESGGGVVQPGGSLRLSCAASGEIFSINQMRWYRQAPGKQREWVAGFTRDGSTNYPDSAKGRFTISRDNAKNTVYLQIDSLKPEDTAVYYCYMLDTWGQGTQVTVSS ?
Output line: 475

Input line: Name the reported Kd value associated with the binder C5^V16h20 (VHH) VHH: EVQLVESGGGVVQPGGSLRLSCAASGTDFSINFIRWYRQAPGKGLEFVAGFTATGNTNYADSVKGRFTISRDNAKNAVYLQMNSLRPEDTAVYYCYILDKWGQGTQVTVSS
Output line: 112

Now examine the next entry.
Input line: Record request: Kd value, item C5^h20 (VHH) VHH: EVQLVESGGGVVQPGGSLRLSCAASGTDFSINFIRWYRQAPGKGLEFVAGFTATGNTNYADSVKGRFTISRDNAKNAVYLQMNSLRPEDTAVYYCYMLDKWGQGTQVTVSS
Output line: 0.985
